Molecular target: CDK6/Cyclin D3 (Homo sapiens (Human))
Sequence (Q00534 whole entry): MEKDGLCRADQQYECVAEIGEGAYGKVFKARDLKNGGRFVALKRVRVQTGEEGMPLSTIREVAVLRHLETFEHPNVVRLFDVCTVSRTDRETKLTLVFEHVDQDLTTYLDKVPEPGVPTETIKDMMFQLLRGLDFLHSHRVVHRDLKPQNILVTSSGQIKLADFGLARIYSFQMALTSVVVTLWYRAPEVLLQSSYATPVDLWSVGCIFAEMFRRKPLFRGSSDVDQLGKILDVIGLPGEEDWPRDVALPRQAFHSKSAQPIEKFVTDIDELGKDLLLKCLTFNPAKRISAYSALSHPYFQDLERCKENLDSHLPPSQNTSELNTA
Sequence (P30281 whole entry partner): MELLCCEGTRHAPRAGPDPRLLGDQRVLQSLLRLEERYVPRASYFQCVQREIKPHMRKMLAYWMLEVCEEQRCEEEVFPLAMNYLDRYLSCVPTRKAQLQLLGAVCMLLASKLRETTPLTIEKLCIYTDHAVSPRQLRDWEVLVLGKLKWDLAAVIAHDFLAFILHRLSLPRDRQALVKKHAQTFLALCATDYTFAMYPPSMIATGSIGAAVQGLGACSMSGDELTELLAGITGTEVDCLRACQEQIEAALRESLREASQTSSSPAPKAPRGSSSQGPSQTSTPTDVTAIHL
Assay: CDK6/Cyclin D3 kinase TR-FRET inhibition assay
Conditions: 1 mM ATP, Rb (Ser780)-biotin substrate, read-out: CDK6D3 IC50
experimental endpoint: pIC50
Units for pIC50: none; it is -log10 of a concentration expressed in mol/L.

query: Any idea what pIC50 was measured for CC(C)c1ccnc2ccc(-c3nc(N[C@@H]4CCOC[C@H]4O)ncc3F)cc12 [Example 8] ?
result: 6.60

query: Any idea what pIC50 was measured for CC(C)c1c([C@@H](C)O)cnc2ccc(-c3nc(N[C@@H]4CCOC[C@H]4O)ncc3F)cc12 [Example 42] ?
result: 6.32

query: Any idea what pIC50 was measured for CC(C)c1c([C@H](C)N)cnc2ccc(-c3nc(N[C@@H]4CCOC[C@H]4O)ncc3F)cc12 [Example 55] ?
result: 5.96

query: Any idea what pIC50 was measured for CC(C)c1c(CNC2CCOCC2)cnc2ccc(-c3nc(N[C@@H]4CCOC[C@H]4O)ncc3F)cc12 [Example 29] ?
result: 6.07

query: Any idea what pIC50 was measured for CC(C)c1nc(C(C)(C)O)nc2c(F)cc(-c3nc(N[C@@H]4CCOC[C@H]4O)ncc3Cl)cc12 [Example 209] ?
result: 5.30

query: Any idea what pIC50 was measured for CC(C)c1c(CNc2ncccn2)cnc2ccc(-c3nc(N[C@@H]4CCOC[C@H]4O)ncc3F)cc12 [Example 45] ?
result: 6.54

query: Any idea what pIC50 was measured for CC(C)c1c(CN2C[C@H]3C[C@@H]2CO3)cnc2ccc(-c3nc(N[C@@H]4CCOC[C@H]4O)ncc3F)cc12 [Example 49] ?
result: 6.41

query: Any idea what pIC50 was measured for Cc1nc2ccc(-c3nc(N[C@@H]4CCOC[C@H]4O)ncc3F)cc2c(C(C)C)c1CO [Example 15] ?
result: 6.25

query: Any idea what pIC50 was measured for CC(C)c1c(CO)cnc2ccc(-c3nc(N[C@@H]4CCOC[C@H]4O)ncc3F)cc12 [Example 3] ?
result: 7.13

query: Any idea what pIC50 was measured for Cc1c(-c2nc(N[C@@H]3CCOC[C@H]3O)ncc2F)ccc2ncc(CN)c(C(C)C)c12 [Example 145] ?
result: 7.18

query: Any idea what pIC50 was measured for CC(C)c1c(CO)cnc2c(F)cc(-c3nc(N[C@@H]4CCOC[C@H]4O)ncc3F)cc12 [Example 51] ?
result: 7.17

query: Any idea what pIC50 was measured for CC(C)c1c(CNC2CC(F)(F)C2)cnc2c(F)cc(-c3nc(N[C@@H]4CCOC[C@H]4O)ncc3F)cc12 [Example 52] ?
result: 6.62

query: Any idea what pIC50 was measured for Cc1cc(C(C)C)c2cc(-c3nc(N[C@@H]4CCOC[C@H]4O)ncc3F)ccc2n1 [Example 10] ?
result: 6.03

query: Any idea what pIC50 was measured for CC(C)c1c(CN[C@H]2CCOC2)cnc2ccc(-c3nc(N[C@@H]4CCOC[C@H]4O)ncc3F)cc12 [Example 39] ?
result: 6.12

query: Any idea what pIC50 was measured for CC(C)c1c(CN2CC(O)C2)cnc2ccc(-c3nc(N[C@@H]4CCOC[C@H]4O)ncc3F)cc12 [Example 16] ?
result: 6.22

query: Any idea what pIC50 was measured for Cc1cc(C(C)C)c2cc(-c3nc(N[C@@H]4CCOC[C@H]4O)ncc3Cl)ccc2n1 [Example 5] ?
result: 6.09

query: Any idea what pIC50 was measured for CC(C)c1c(CNC[C@@H]2CCOC2)cnc2ccc(-c3nc(N[C@@H]4CCOC[C@H]4O)ncc3F)cc12 [Example 33] ?
result: 6.10

query: Any idea what pIC50 was measured for CC(C)c1c(CNC[C@@H]2CCCO2)cnc2ccc(-c3nc(N[C@@H]4CCOC[C@H]4O)ncc3F)cc12 [Example 34] ?
result: 6.11

query: Any idea what pIC50 was measured for CC(C)c1c(CN2CC[C@H](F)C2)cnc2ccc(-c3nc(N[C@@H]4CCOC[C@H]4O)ncc3F)cc12 [Example 18] ?
result: 6.22

query: Any idea what pIC50 was measured for CC(C)c1c(CNC[C@H]2CCCO2)cnc2ccc(-c3nc(N[C@@H]4CCOC[C@H]4O)ncc3F)cc12 [Example 24] ?
result: 6.21

query: Any idea what pIC50 was measured for CC(C)c1c(CNc2cnn(C)c2)cnc2ccc(-c3nc(N[C@@H]4CCOC[C@H]4O)ncc3F)cc12 [Example 43] ?
result: 6.27

query: Any idea what pIC50 was measured for CC(C)c1cc(C(C)(C)O)nc2c(F)cc(-c3nc(N[C@@H]4CCOC[C@H]4O)ncc3Cl)cc12 [Example 208] ?
result: 6.30

query: Any idea what pIC50 was measured for COCc1cnc2ccc(-c3nc(N[C@@H]4CCOC[C@H]4O)ncc3F)cc2c1C(C)C [Example 31] ?
result: 6.56

query: Any idea what pIC50 was measured for Cc1cnc2ccc(-c3nc(N[C@@H]4CCOC[C@H]4O)ncc3F)cc2c1C(C)C [Example 6] ?
result: 6.80

query: Any idea what pIC50 was measured for CC(C)c1c(CNC2CCCCC2)cnc2ccc(-c3nc(N[C@@H]4CCOC[C@H]4O)ncc3F)cc12 [Example 28] ?
result: 6.15

query: Any idea what pIC50 was measured for CC(C)c1c(CN2CCCOCC2)cnc2ccc(-c3nc(N[C@@H]4CCOC[C@H]4O)ncc3F)cc12 [Example 44] ?
result: 6.32

query: Any idea what pIC50 was measured for CC(C)c1c(C(C)(C)O)cnc2cc(Cl)c(-c3nc(N[C@@H]4CCOC[C@H]4O)ncc3F)cc12 [Example 70] ?
result: 6.29

query: Any idea what pIC50 was measured for CC(C)NCc1cnc2ccc(-c3nc(N[C@@H]4CCOC[C@H]4O)ncc3F)cc2c1C(C)C [Example 22] ?
result: 6.40

query: Any idea what pIC50 was measured for CC(C)c1c(C(C)(C)O)cnc2cc(F)c(-c3nc(N[C@@H]4CCOC[C@H]4O)ncc3F)cc12 [Example 116] ?
result: 6.70

query: Any idea what pIC50 was measured for CC(C)c1c(CN2CCOCC2)cnc2ccc(-c3nc(N[C@@H]4CCOC[C@H]4O)ncc3F)cc12 [Example 17] ?
result: 6.73
